assay: Storage stability determination of upadacitinib cocrystals (open dish, 40° C./75% RH); format: physicochemical; parameters: reference not given here; conditions: chemical purity after storage in open dish at 40° C./75% RH up to one month
REPORTED_PROPERTY: Purity (%)
Quick reminder: number only, in %, skip the unit.

These solved cases illustrate the format of a correct answer.
| COMPOUND | Purity, % |
| --- | --- |
| CCC1CN(C(=O)NCC(F)(F)F)CC1c1cnc2cnc3[nH]ccc3n12.O=C(O)c1cc(O)c(O)c(O)c1 (stereo not drawn) [gallic acid cocrystal] | 103.8 |
| CC[C@@H]1CN(C(=O)NCC(F)(F)F)C[C@@H]1c1cnc2cnc3[nH]ccc3n12.O=C(O)c1ccc(O)cc1 [4-hydroxybenzoic acid cocrystal] | 102.7 |

From here, focus on the item given below.
Return reported Purity; argument: CC[C@@H]1CN(C(=O)NCC(F)(F)F)C[C@@H]1c1cnc2cnc3[nH]ccc3n12.O=C(O)c1ccc(O)c([N+](=O)[O-])c1 [4-hydroxy-3-nitrobenzoic acid cocrystal]
99.9
